Task for the reader: assign each of the following variants its reported protein stability index.
B1: CPXM2 (parent)
chain: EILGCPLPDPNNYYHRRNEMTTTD

# Variants of: B1
# protocol-details: protein stability index of a GFP-peptide fusion (GPS, HEK-293T) (PSI 1-6); higher = more stable;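 also: lentivirally expressed fusions sorted by FACS into six bins by GFP to DsRed ratio, PSI derived from sequencing read proportions per bin multiplied by bin number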
# settings: c terminus: a fixed tail appended
# answer = number (no unit)

For the variant shown here, N18A , give the reported protein stability index. 3.3

Return reported protein stability index; argument: D9N 3.18

Field request: protein stability index | item: H15E 3.62

Fill in: protein stability index of T23V is ___ 2.85

Could you share which protein stability index value was measured for M20Q ? 4.42

Endpoint output: protein stability index of L3I . Value? 3.58

Given Y13C , state its recorded protein stability index. 3.77

For T21E , what is its reported protein stability index? 4.27

# protein stability index lookup, item D9G 3.03

Would you kindly share the measured protein stability index for T23H ? 3.6

Item under review: L3V . Reported protein stability index? 3.85
